- Tested on: NIH3T3
- protocol.description: Cytotoxicity against mouse NIH/3T3 cells at 1 to 10 uM after 72 hrs measured during wound-healing assay
- Type: cell-based
- stated.conditions: nih3t3, 72 h
property.measured: Activity

                            smiles_notation     result
0  CCCCC1=N/C(=C\c2cccc(Br)c2)C(=O)N1Cc1ccc(-c2ccccc2-c2nnn(C(c3ccccc3)(c3ccccc3)c3ccccc3)n2)cc1  Non-Toxic
1  CCCCC1=N/C(=C\c2ccc(Br)cc2)C(=O)N1Cc1ccc(-c2ccccc2-c2nnn(C(c3ccccc3)(c3ccccc3)c3ccccc3)n2)cc1  Non-Toxic
2  CCCCC1=N/C(=C\c2ccc(Cl)cc2)C(=O)N1Cc1ccc(-c2ccccc2-c2nnn(C(c3ccccc3)(c3ccccc3)c3ccccc3)n2)cc1  Non-Toxic
3  CCCCC1=N/C(=C\c2ccccc2Br)C(=O)N1Cc1ccc(-c2ccccc2-c2nnn(C(c3ccccc3)(c3ccccc3)c3ccccc3)n2)cc1  Non-Toxic
4  CCCCC1=N/C(=C\c2ccc(Br)cc2)C(=O)N1Cc1ccc(-c2ccccc2C#N)cc1  Non-Toxic
5  CCCCC1=N/C(=C\c2cccc(Cl)c2)C(=O)N1Cc1ccc(-c2ccccc2-c2nnn(C(c3ccccc3)(c3ccccc3)c3ccccc3)n2)cc1  Non-Toxic
